This collection of values is drawn from PubChem BioAssay.

# procedure-text: modulators of HCV replicon luciferase signal, primary screen, HCV replication inhibitor project, Huh7 cells, luciferase reporter (AID 1109);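 further: huh7 hepatoma cells harbouring a luciferase neomycin HCV replicon reporter; luciferase luminescence as measure of HCV replicon replication; test concentration not given here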
# condition-parameters: 48 h, higher = more signal
Mark condition met for reported z-score of -2 or greater; mark condition not met for anything smaller.

molecule: C#CCN1C(C(=O)OCC)OC[C@H]1c1ccccc1 (some centres not stated)
class-name: condition met
--
molecule: O=C1O[C@@H](c2ccccc2)[C@@H](c2ccccc2)N2[C@@H](c3ccc(OCCO)cc3)[C@]3(C(=O)Nc4ccc(C#CC5(O)CCCCCC5)cc43)[C@@H](C(=O)NC[C@H](O)c3ccccc3)[C@H]12
class-name: condition not met
--
molecule: COCCOC(=O)N1C(=O)[C@@]2(c3cc(C#CC4(O)CCCCCC4)ccc31)[C@H](c1ccccc1OCCO)N1[C@H](c3ccccc3)[C@H](c3ccccc3)OC(=O)[C@H]1[C@@H]2C(=O)Nc1nc2ccccc2s1
class-name: condition met
--
molecule: C=CCN1C(=O)[C@@]2(O[C@@H](CCn3cc(CCO)nn3)[C@H]([Si](C)(C)c3ccc(OC)cc3)[C@H]2C)c2cc(N3C(=O)c4cccc5cccc3c45)ccc21
class-name: condition not met
--
molecule: C=C(COC)/C(=C/C[C@H](OC(C)=O)c1cccc(OCCO)c1)c1cc(C(=O)OC)ccc1OC
class-name: condition not met
--
molecule: C=CCNC(=O)[C@@H]1[C@H]2C(=O)O[C@H](c3ccccc3)[C@H](c3ccccc3)N2[C@H](c2ccc(O)cc2)[C@@]12C(=O)N(C(=O)OCCOC)c1ccc(C#Cc3ccc(OC)cc3)cc12
class-name: condition met
--
molecule: O=C1O[C@H](c2ccccc2)[C@H](c2ccccc2)N2[C@H]1[C@@H](C(=O)NC[C@H](O)c1ccccc1)[C@]1(C(=O)Nc3ccc(C#CC4(O)CCCCCC4)cc31)[C@H]2c1ccc(O)cc1
class-name: condition met
--
molecule: COc1ccc(C#Cc2ccc3c(c2)[C@]2(C(=O)N3)[C@H](c3ccc(O)cc3)N3[C@H](c4ccccc4)[C@H](c4ccccc4)OC(=O)[C@H]3[C@@H]2C(=O)N2CCN(c3ncccn3)CC2)cc1
class-name: condition met
--
molecule: CCCCCCC#C[Si](O[C@H](c1ccccc1)c1cn(Cc2ccccc2)nn1)(C(C)C)C(C)C
class-name: condition met
--
molecule: NCCCCCCNC(=O)[C@@H]1C[C@@H]2C(=O)N[C@@H](Cc3ccccc3)C(=O)N2[C@@H]1c1ccc(O)cc1
class-name: condition met
--
molecule: C=CCOC(=O)[C@H]1[C@@H]2C(=O)O[C@@H](c3ccccc3)[C@@H](c3ccccc3)N2[C@@H](c2ccc(OCCOC(=O)[C@H]3C[C@H]4C(=O)N5CCC[C@H]5C(=O)N4[C@H]3c3cccc(OCCO)c3)cc2)[C@]12C(=O)Nc1ccccc12
class-name: condition met
--
molecule: C=C(C1=CCN(S(=O)(=O)c2ccc(C)cc2)C1)[C@@H](OC(C)=O)[C@@H]1CCCN1S(=O)(=O)c1ccccc1[N+](=O)[O-]
class-name: condition not met

----------
Each item that follows carries a reported composite z-score.
# Test system: Plasmodium falciparum Sir2 (PF13_0152, Sir2A)
# procedure-text: pfSir2 binders on small-molecule microarrays, primary screen, biochemical, small-molecule microarray, 635 nm fluorescence (AID 1098);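 further: score merges spot fluorescence intensity with its signal-to-noise ratio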
# condition-parameters: small-molecule microarray binding, fluorescence 635 nm; higher = more signal

molecule: COc1ccc([Si](C)(C)[C@@H]2[C@@H](CCn3cc(CCO)nn3)O[C@]3(C(=O)N(Cc4ccc(N5C(=O)c6cccc7cccc5c67)cc4)c4ccccc43)[C@H]2C)cc1
composite z-score: 0.831
--
molecule: Cc1ccc(S[C@]2(C(=O)NCCN3CCOCC3)CC(=O)N(Cc3cc(C(F)(F)F)cc(C(F)(F)F)c3)[C@@H]2c2ccc(CO)cc2)cc1
composite z-score: 1.71
--
molecule: Cc1ccc(S[C@]2(C(=O)NC3CC3)CC(=O)N(Cc3ccccc3C(F)(F)F)[C@@H]2c2ccc(CO)cc2I)cc1
composite z-score: 1.64
--
molecule: O=C1O[C@H](c2ccccc2)[C@H](c2ccccc2)N2[C@H]1[C@@H](C(=O)NC[C@H](O)c1ccccc1)[C@]1(C(=O)Nc3ccc(C#CC4(O)CCCCCC4)cc31)[C@H]2c1ccc(O)cc1
composite z-score: 0.59
--
molecule: C=CCC(OC(C)=O)[C@@H]1[C@@H](N(Cc2cc3ccccc3o2)C(=O)c2ccc(-c3ccccc3)cc2)c2cc(OCCCO)ccc2N1C(=O)c1ccc(-c2ccccc2)cc1 (some centres not stated)
composite z-score: -0.149
--
molecule: C=C(COC)C(=O)CC[C@@H](OC(=O)c1ccccc1-c1ccccc1C(=O)O)c1cccc(OCCO)c1
composite z-score: 0.147
--
molecule: COCCOC(=O)N1C(=O)[C@@]2(c3cc(C#CC4(O)CCCCCC4)ccc31)[C@H](C(=O)NC[C@H](O)c1ccccc1)[C@H]1C(=O)O[C@H](c3ccccc3)[C@H](c3ccccc3)N1[C@@H]2c1ccccc1OCCO
composite z-score: 1.27

----------
Each item that follows carries a reported z-score.
# study-target: Homeobox protein Hox-A13 (Mus musculus) (UniProt Q62424)
# Sequence (Q62424 whole entry, looked up): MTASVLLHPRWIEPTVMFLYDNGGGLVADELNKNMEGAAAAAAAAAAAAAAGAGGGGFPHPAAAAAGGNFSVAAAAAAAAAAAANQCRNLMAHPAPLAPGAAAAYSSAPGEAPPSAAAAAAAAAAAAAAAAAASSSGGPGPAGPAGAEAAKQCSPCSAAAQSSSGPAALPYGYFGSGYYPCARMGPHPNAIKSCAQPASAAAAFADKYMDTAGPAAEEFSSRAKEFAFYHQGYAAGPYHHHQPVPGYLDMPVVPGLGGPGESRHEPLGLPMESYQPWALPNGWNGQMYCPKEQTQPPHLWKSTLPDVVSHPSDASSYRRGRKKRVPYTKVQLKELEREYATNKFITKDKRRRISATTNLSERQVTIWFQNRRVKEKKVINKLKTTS
# procedure-text: inhibitors of HoxA13-DNA binding, primary screen, biochemical, fluorescence polarization, labeled oligonucleotide (AID 1185)
# condition-parameters: 15 min, higher = more signal, called active from +8 up or from −8 down

compound: CN(C)CCCC[C@@H]1NC(=O)[C@@H]2C[C@H](C(=O)NCCCCCNC(=O)CS)[C@H](c3cccc(OCCO)c3)N2C1=O
z-score: -1.12

compound: C=C(/C(=C/C[C@H](OC(C)=O)c1cccc(OCCO)c1)c1cc(C(=O)OC)ccc1OC)C(C)C
z-score: -4.34

compound: Cc1ccc(S[C@]2(C(=O)NCC(C)C)CC(=O)N(C(C)C)[C@@H]2c2ccc(CO)cc2)cc1
z-score: 1.8

compound: C[C@@H](OCc1ccccc1)C1NC(=O)[C@@]23C(=O)N[C@@H](Cc4ccccc4)C2[C@H](C)[C@@]2(C)O[C@H]2C3/C=C/C/C=C\CNC(=O)[C@@H]2CCCN2C1=O (some centres not stated)
z-score: -7.05

compound: COc1ccc([Si](C)(C)[C@H]2[C@H](CC(=O)N3Cc4ccccc4C[C@H]3CO)O[C@@]3(C(=O)N(Cc4cccc(N5C(=O)COc6ccccc65)c4)c4ccccc43)[C@@H]2C)cc1
z-score: -1.82

compound: C=CC[C@@H](OC(=O)Nc1ccc(SC)cc1)c1ccc(OCCO)cc1
z-score: -5.9

compound: CC(C)[C@@H](C(=O)O)n1cc(-c2ccccn2)nn1
z-score: -1.37

----------
# procedure-text: small-molecule microarray binders of probe aLefty2, primary screen, biochemical, biotinylated probe, 635/667 nm fluorescence (AID 1094);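 further: score merges spot fluorescence near 667 nm with spot signal-to-noise ratio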
# condition-parameters: higher = more signal
Each item that follows carries a reported composite z-score.

molecule: CCN(CC)c1ccc(N2CC=CC34O[C@@H]5C=CCOC(=O)[C@@H]5[C@H]3C(=O)N(C(CO)C(C)C)[C@@H]4C2=O)cc1 (stereo partly specified)
composite z-score: -0.138

molecule: COC(=O)C(CC#Cc1ccc2c(c1)[C@]1(C(=O)N2)[C@H](C(N)=O)[C@H]2C(=O)O[C@H](c3ccccc3)[C@H](c3ccccc3)N2[C@@H]1c1ccc(O)cc1)C(=O)OC
composite z-score: -0.117

molecule: C=CCN1C(=O)[C@@]2(O[C@@H](CCn3cc(CCO)nn3)[C@H]([Si](C)(C)c3ccc(OC)cc3)[C@H]2C)c2cc(NC(=O)c3ccc(OC)cc3)ccc21
composite z-score: -0.0985

molecule: C=C(COC)C(=O)CC[C@H](OC(=O)c1ccccc1-c1ccccc1C(=O)O)c1ccccc1OCCO
composite z-score: -0.235

molecule: C=CCOC(=O)[C@H]1[C@@H]2C(=O)O[C@@H](c3ccccc3)[C@@H](c3ccccc3)N2[C@@H](c2ccc(OCCOC(=O)[C@H]3C[C@H]4C(=O)N5CCC[C@H]5C(=O)N4[C@H]3c3cccc(OCCO)c3)cc2)[C@]12C(=O)Nc1ccccc12
composite z-score: 0.103

molecule: CC(C)N1CC=CC23O[C@@H]4/C=C\CCCOC(=O)C4[C@H]2C(=O)N(CCCO)[C@@H]3C1=O (stereo partly specified)
composite z-score: -0.221

----------
Each item that follows carries a reported z-score.
# procedure-text: mitochondrial membrane potential change in A549 cells, profiling panel, cell-based, JC-1 fluorescence, basal, 24 h, 100 nL (AID 1138);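 further: A549 lung adenocarcinoma cells under basal conditions with no added stimulus; test concentration not given here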
# condition-parameters: higher = more signal

compound: COc1ccc(C#Cc2ccc3c(c2)[C@]2(C(=O)N3)[C@H](c3ccc(O)cc3)N3[C@H](c4ccccc4)[C@H](c4ccccc4)OC(=O)[C@H]3[C@@H]2C(N)=O)cc1
z-score: -1.59
--
compound: C=CC[C@@H](OC(=O)Nc1ccc(SC)cc1)c1ccc(OCCO)cc1
z-score: 0.844
--
compound: CC(C)C(=C=CC[C@H](O)c1ccc(OCCO)cc1)C[C@H](O)COCc1ccccc1
z-score: 2.47
--
compound: CC(C)CNC(=O)[C@@H]1c2ccccc2C(=O)N(Cc2ccc(OC(F)(F)F)cc2)[C@H]1c1ccc(CO)cc1
z-score: 0.71
--
compound: CC(C)(C)OC(=O)CC[C@@]1(C(=O)N2CCOCC2)N=C(c2ccc(OCCCO)cc2)O[C@@H]1c1ccccc1
z-score: 2.16
--
compound: COc1c(C)cc(-c2cc3c(c(CCc4ccccc4)n2)[Si](C(C)C)(C(C)C)OC3)cc1C
z-score: 2.24
--
compound: CN(C)CCCC[C@@H]1NC(=O)[C@@H]2C[C@H](C(=O)NCCCCCNC(=O)CS)[C@H](c3cccc(OCCO)c3)N2C1=O
z-score: 0.43
--
compound: COC(=O)C(CC#Cc1ccc2c(c1)[C@]1(C(=O)N2)[C@H](C(N)=O)[C@H]2C(=O)O[C@H](c3ccccc3)[C@H](c3ccccc3)N2[C@@H]1c1ccc(O)cc1)C(=O)OC
z-score: -1.07
--
compound: O=C(NCC(F)(F)F)[C@@H]1c2ccccc2C(=O)N(C2Cc3ccccc3C2)[C@H]1c1ccc(CO)cc1
z-score: 2.62
--
compound: C=C(COC)C(=O)CC[C@H](OC(=O)c1ccccc1-c1ccccc1C(=O)O)c1ccccc1OCCO
z-score: 0.904
--
compound: C=CCNC(=O)[C@@H]1[C@H]2C(=O)O[C@H](c3ccccc3)[C@H](c3ccccc3)N2[C@H](c2ccc(O)cc2)[C@@]12C(=O)Nc1ccc(C#Cc3ccc(OC)cc3)cc12
z-score: -1.18
--
compound: CCN(CC)c1ccc(N2CC=CC34O[C@@H]5C=CCOC(=O)[C@@H]5[C@H]3C(=O)N(C(C)CO)[C@@H]4C2=O)cc1 (stereo not given in full)
z-score: 1.39
--
compound: CCOC(=O)C[C@H]1[C@H](OC(=O)c2ccc(-c3ccccc3)cc2)[C@@H](NC(=O)c2ccccc2)c2cc(OCCCO)ccc2N1C(=O)c1ccccc1
z-score: 2.3
--
compound: C=C(CCCC)/C(=C/C[C@H](OC(=O)c1ccncc1)c1ccc(CO)o1)c1cnc2ccccc2c1
z-score: 1.45
--
compound: Cc1ccc(S[C@]2(C(=O)NCCN3CCOCC3)CC(=O)N(Cc3cc(C(F)(F)F)cc(C(F)(F)F)c3)[C@@H]2c2ccc(CO)cc2)cc1
z-score: 1.59
